test-protocol: chemical genetic growth profiling, strain panel (AID 1159580);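 also: tested at 20 µM; growth read once vehicle control cultures reached saturation at 30 °C; 1 = growth at the plate median or of vehicle wells; lower values mean less growth of the strain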
measurement-parameters: S. cerevisiae deletion strains, growth OD, locus YDR388W
Hit rate of the full screen: of about 5,500 compounds, about 2,000 (36%) were called active. Inconclusive results (about 18%) are left out. Rule as the data show it: active = normalized growth mostly below about 0.91 (no sharp cut-off); inconclusive = no clear call, values can overlap the other calls; inactive = mostly above about 0.92. This is one part of the list.
Labels: active, inactive

compound	assigned-category
CN1Cc2c(N)cccc2C(c2ccccc2)C1 (centres undefined)	inactive
Cn1nnnc1SCC1=C(C(=O)O)N2C(=O)C(NC(=O)C(OC=O)c3ccccc3)C2SC1 (centres undefined)	inactive
COc1cc(O)c(C(C)=O)c(OC)c1	inactive
COC(=O)C[C@H]1C(C)(C)C(OC(C)=O)[C@]2(O)C=C3C4CC(=O)O[C@@H](c5ccoc5)[C@]4(C)CCC3[C@@]1(C)C2=O (some centres undefined)	inactive
O=C1c2ccc(O)c(O)c2C(=O)c2c(O)ccc(O)c21	inactive
CCOC(=O)C1=C(C)NC(C)=C(C(=O)OC)C1c1cccc([N+](=O)[O-])c1 (centres undefined)	inactive
CC(=O)OCC(=O)[C@@]1(O)CCC2C3CCC4=CC(=O)CC[C@]4(C)[C@@]3(F)[C@@H](O)C[C@@]21C (some centres undefined)	inactive
C[C@]12CCC3C(CC[C@H]4C[C@@H](O)CC[C@]34C)C1CCC2=O (some centres undefined)	inactive
O=C1c2ccccc2C(=O)c2c1ccc(O)c2O	active
CCNc1nc(Cl)nc(NC(C)C)n1	inactive
O=[N+]([O-])/N=C1/NCCN1Cc1ccc(Cl)cc1	inactive
CC1=C2CCC3C(CC[C@]4(C)C(=O)CCC34)[C@@]2(C)CCC1=O (some centres undefined)	inactive
O=c1[nH]c2ccccc2n1C1CCN(CCCC(c2ccc(F)cc2)c2ccc(F)cc2)CC1	active
Cc1cc(C)nc(NS(=O)(=O)c2ccc(N)cc2)n1	inactive
COc1cc(OC)c2c(c1Cl)OC1(C2=O)C(O)=CC(=O)CC1C (centres undefined)	inactive
N#Cc1ccc2c(c1)N(CCCN1CCC(O)CC1)c1ccccc1S2	inactive
COc1ccc2c(c1)[nH]c1c(C)nccc12	inactive
CCCC(=O)Nc1ncnc2c1ncn2C1O[C@@H]2COP(=O)(O)O[C@H]2[C@H]1OC(=O)CCC (some centres undefined)	inactive
OCCN1CCN(CCCN2c3ccccc3Sc3ccc(Cl)cc32)CC1	inactive
C[C@]12CCC3c4ccc(O)cc4CCC3C1CC[C@@H]2OC(=O)CCC1CCCC1 (some centres undefined)	inactive
Cc1c(N(C)CS(=O)(=O)O)c(=O)n(-c2ccccc2)n1C	inactive
Cc1cccc(N(C)C(=S)Oc2ccc3ccccc3c2)c1	inactive
CCCCC(=O)O[C@H]1CCC2C3CCc4cc(O)ccc4C3CC[C@@]21C (some centres undefined)	inactive
CN(C)c1nc(N(C)C)nc(N(C)C)n1	inactive
O=c1c(-c2ccc3c(c2)OCO3)coc2cc(O)ccc12	inactive
O=c1n(CCCN2CCN(c3cccc(Cl)c3)CC2)nc2ccccn12	inactive
Cn1c(=O)[nH]c(=O)c2[nH]cnc21	inactive
CC(C)=CCOc1c2occc2cc2ccc(=O)oc12	active
CC(C)=CCOc1cc2oc(=O)ccc2cc1O	inactive
Cn1c([N+](=O)[O-])cnc1COC(N)=O	inactive
O=C(CCCN1CC=C(n2c(=O)[nH]c3ccccc32)CC1)c1ccc(F)cc1	inactive
C/C=C(\C)C(=O)OC1[C@@H]2C=C3C4CC(=O)O[C@@H](c5ccoc5)[C@]4(C)CCC3[C@@](C)(C2=O)[C@@H](C(O)C(=O)OC)C1(C)C (some centres undefined)	inactive
C[C@]12CCC3C(CC[C@H]4CC(=O)CC[C@]34C)C1CCC2=O (some centres undefined)	active
Nc1ncnc2nc[nH]c12	inactive
COC(=O)C[C@H]1C(C)(C)[C@@H](OC(C)=O)[C@@H]2CC3C4CC(=O)O[C@@H](c5ccoc5)[C@]4(C)CCC3[C@@]1(C)C2=O (some centres undefined)	inactive
COc1cc(O)c(C(=O)c2ccccc2)c(OC)c1	inactive
CNC(=O)CSP(=S)(OC)OC	inactive
CC(=O)Oc1ccc2c(c1)CCC1C2CC[C@@]2(C)C1CC[C@@H]2OC(C)=O (some centres undefined)	inactive
CC(C)=CCc1c(O)cc2occ(-c3ccc4c(c3)OCO4)c(=O)c2c1O	inactive
CN1CCN(C(c2ccccc2)c2ccccc2)CC1	inactive
Cc1cc(O)c2c(c1O)C(=O)c1c(O)cc(C)c(O)c1C2=O	inactive
COc1c2c(cc3occ(-c4ccc5c(c4)OCO5)c(=O)c13)OC(C)(C)C=C2	inactive
CC(C)=CCC1=C(O)c2ccccc2C(=O)C1=O	active
C=C(C)c1cc2cc(C(C)=O)c(O)cc2o1	inactive

###

test-protocol: chemical genetic growth profiling, strain panel (AID 1159580);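 also: tested at 20 µM; growth read once vehicle control cultures reached saturation at 30 °C; 1 = growth at the plate median or of vehicle wells; lower values mean less growth of the strain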
measurement-parameters: S. cerevisiae deletion strains, growth OD, locus YNL248C, strain rpa49, stronger effect = lower value
Out of some 5,500 compounds screened, about 2,000 (36%) were called active. Another 18% or so got no clear call; they are omitted. This is one part of the list.

molecule	normalized growth
CCCCC/C=C\C/C=C\C/C=C\C/C=C\CCCC(=O)O	0.972
Cc1cccc(N(C)C(=S)Oc2ccc3ccccc3c2)c1	0.998
Cc1cc(O)c2c(c1O)C(=O)c1c(O)cc(C)c(O)c1C2=O	0.95
COc1ccc2ccc(=O)oc2c1CC=C(C)C	0.971
CC(C)=CCOc1cc2oc(=O)ccc2cc1O	0.98
CC(C)=CCC1=C(O)c2ccccc2C(=O)C1=O	0.974
Cc1nccc2c1[nH]c1ccccc12	0.955
COc1cc2ccc(=O)oc2c(OC)c1OC	0.962
NCCS	0.983
O=C(CCCN1CC=C(n2c(=O)[nH]c3ccccc32)CC1)c1ccc(F)cc1	0.981
O=C(O)c1cc2cc(Cl)ccc2[nH]1	0.991
O=C1OC(=O)C2C3CCC(O3)C12 (stereo unspecified)	1.05
COc1c2occc2cc2ccc(=O)oc12	0.901
CC(C)=CCC/C(C)=C/COc1ccc2ccc(=O)oc2c1	0.981
O=c1[nH]c2ccccc2n1CCCN1CCC(n2c(=O)[nH]c3cc(Cl)ccc32)CC1	0.996
CCCC(=O)Nc1ncnc2c1ncn2C1O[C@@H]2COP(=O)(O)O[C@H]2[C@H]1OC(=O)CCC (stereo partly specified)	1.02
CC1(C)C=Cc2c(cc3occ(-c4ccc5c(c4)OCO5)c(=O)c3c2O)O1	0.963
COC(=O)C1=CO[C@@H](O[C@@H]2O[C@H](CO)[C@@H](O)[C@H](O)[C@H]2O)[C@@H]2[C@@H](C)[C@@H](O)C[C@H]12	0.982
CC(=O)O[C@@H]1CC2C(C)(C)[C@H](O)C[C@H](O)[C@]2(C)C2CC[C@@]3(C)C(=CC(=O)O[C@H]3c3ccoc3)[C@@]21C (stereo partly specified)	0.967
CCNc1nc(Cl)nc(NC(C)C)n1	0.994
CC(C)(O)CC[C@@H](O)[C@](C)(O)C1CC[C@@]2(O)C3=CC(=O)C4C[C@@H](O)[C@@H](O)C[C@]4(C)C3CC[C@]12C (stereo partly specified)	0.996
O=c1ccc2cc(O[C@@H]3O[C@H](CO)[C@@H](O)[C@H](O)[C@H]3O)c(O)cc2o1	1.01
CCOc1nc2cccc(C(=O)OC(C)OC(=O)OC3CCCCC3)c2n1Cc1ccc(-c2ccccc2-c2nn[nH]n2)cc1 (stereo unspecified)	1.02
COc1ccc2c(=O)c(-c3cc4c(cc3OC)OCO4)coc2c1	1.02
COc1c2c(cc3occ(-c4ccc5c(c4)OCO5)c(=O)c13)OC(C)(C)C=C2	0.963
O=C(/C=C/C(=O)Oc1ccccc1C(=O)O)Oc1ccccc1C(=O)O	0.985
COc1ccc(Cc2nccc3cc(OC)c(OC)cc23)cc1OC	0.992
CSCCC(NC=O)C(=O)NC(CC(C)C)C(=O)NC(Cc1ccccc1)C(=O)O (stereo unspecified)	1
COc1cc(OC)c2c(=O)c(-c3ccc4c(c3)OCO4)coc2c1	1.02
C[N+]1(C)CCc2cc3c(cc2[C@H]1C1OC(=O)c2c1ccc1c2OCO1)OCO3 (stereo partly specified)	0.959
COc1ccc2c(c1)[nH]c1c(C)nccc12	0.966
CC(C(=O)O)c1ccc(N2Cc3ccccc3C2=O)cc1 (stereo unspecified)	0.968
O=c1cc(-c2ccc(O)cc2)oc2cc(O[C@@H]3O[C@H](CO)[C@@H](O)[C@H](O)[C@H]3O[C@@H]3OC[C@](O)(CO)[C@H]3O)cc(O)c12	1
N#C/C(=C\c1ccc(O)cc1)C(=O)O	0.963
O=c1ccc2ccc(O)c(O)c2o1	1.04
CCCCC(=O)N(Cc1ccc(-c2ccccc2-c2nn[nH]n2)cc1)[C@H](C(=O)O)C(C)C	0.947
COc1cc(OC)c(C(C)=O)c(O)c1C	0.917
COc1cc2c(cc1-c1coc3c4c(c(OC)cc3c1=O)OC(C)(C)C=C4)OCO2	1.1
COc1c(O)cc(O)cc1O	1
CN1Cc2c(N)cccc2C(c2ccccc2)C1 (stereo unspecified)	1.03
COc1cc(O)c(C)c(O)c1	1.04
Cn1c(=O)[nH]c(=O)c2[nH]cnc21	0.985
Cc1cc(C)nc(NS(=O)(=O)c2ccc(N)cc2)n1	0.909
CC1(C)C[C@@H]2C(=O)CC[C@H]3O[C@]3(C)CC[C@H]21	1.04
Cc1ncc([N+](=O)[O-])n1CCO	0.981
CCOc1ccc(Cc2nccc3cc(OCC)c(OCC)cc23)cc1OCC	0.942
